Observed property: logP
When you answer, write just the number.

Reference set (8 entries):
Could you share which logP value was measured for Cc1cc(C)nc(NC(=O)c2ccc(Br)o2)c1 ?
3.22

Next up: Cc1cc(C)nc(NC(=O)c2cccc(C#N)c2)c1
2.88

Likewise for Cc1cc(C)nc(NC(=O)c2cccn2C)c1 ?
2.42

Next: Cc1cc(C)nc(NC(=O)c2cccc(F)c2)c1
3.31

// repeat for Cc1cc(C)nc(NC(=O)C(c2ccccc2)c2ccccc2)c1 and report
4.77

Try the molecule Cc1cc(C)nc(NC(=O)c2ccc(Br)s2)c1
3.74

Ok, now Cc1cc(C)nc(NC(=O)c2cccs2)c1
2.77

Can you check Cc1cc(C)nc(NC(=O)c2cc3ccccc3o2)c1 next?
3.54

New cases:
Looking for the measured logP of Cc1cc(C)nc(NC(=S)c2ccccc2)c1 , can you help?
3.45

Next up: COc1cccc2cc(C(=O)Nc3cc(C)cc(C)n3)oc12
4.27

Try this molecule too: Cc1cc(C)nc(NC(=O)Cc2ccc(Br)cc2)c1
4.07

Please answer likewise for Cc1cc(C)nc(NC(=O)c2ccc([N+](=O)[O-])o2)c1
2.39

Next up: Cc1cc(C)nc(NC(=O)c2cccc(Br)c2)c1
4.04

###

Answer rule not met if logP is under 3, and rule met if it is 3 or more.

Some solved entries appear below for comparison.
Is logP at least 3? Consider Cc1cc(C)nc(NC(=S)c2ccc(C)o2)c1
rule met

Next compound: Cc1cc(C)nc(NC(=O)c2ccc(C)o2)c1
rule not met

Further, for Cc1cc(C)nc(NC(=O)c2cccc([N+](=O)[O-])c2)c1 ?
rule met

Here's the next entry for you.
Check this compound for logP at or above 3: Cc1cc(C)nc(NC(=O)c2ccco2)c1
rule not met

Value source: the SangsterLogP compilation
